test_details: PK of compound of Formula (Ia) after single subcutaneous dose of solution formulations in beagle dogs
Format: in vivo
cond: male, beagle, dog, plasma, sc, 12 mg/kg, mean ± SD, n = 3 dogs; SC 12 mg/kg; solution W, 400 mg/mL; read-out: AUC0-168 h
attribute_measured: AUC(0-t)
Number first, unit second.

Ask: GET /values?readout=AUC(0-t)&item= CC(C)(C#Cc1ccc(-c2ccc(Cl)c3c(NS(C)(=O)=O)nn(CC(F)(F)F)c23)c([C@H](Cc2cc(F)cc(F)c2)NC(=O)Cn2nc(C(F)(F)F)c3c2C(F)(F)[C@@H]2C[C@H]32)n1)S(C)(=O)=O
Reply: 6.82 µM·h
